Reported (IC50 CDK12 high ATP) to (Degradation DC50 CDK12) ratio by item:
target: CDK12 (Homo sapiens, UniProt Q9NYV4); construct: endogenous in cells; host or cells: CAL-120 human breast cancer cells (DSMZ ACC 459); test: CDK12 nuclear protein level: immunofluorescence/high content analysis in CAL-120 cells; format: cell-based; settings: ratio of IC50 CDK12 hATP (2 mM ATP) to DC50 CDK12 (IF, CAL-120)
Sequence (Q9NYV4 whole entry): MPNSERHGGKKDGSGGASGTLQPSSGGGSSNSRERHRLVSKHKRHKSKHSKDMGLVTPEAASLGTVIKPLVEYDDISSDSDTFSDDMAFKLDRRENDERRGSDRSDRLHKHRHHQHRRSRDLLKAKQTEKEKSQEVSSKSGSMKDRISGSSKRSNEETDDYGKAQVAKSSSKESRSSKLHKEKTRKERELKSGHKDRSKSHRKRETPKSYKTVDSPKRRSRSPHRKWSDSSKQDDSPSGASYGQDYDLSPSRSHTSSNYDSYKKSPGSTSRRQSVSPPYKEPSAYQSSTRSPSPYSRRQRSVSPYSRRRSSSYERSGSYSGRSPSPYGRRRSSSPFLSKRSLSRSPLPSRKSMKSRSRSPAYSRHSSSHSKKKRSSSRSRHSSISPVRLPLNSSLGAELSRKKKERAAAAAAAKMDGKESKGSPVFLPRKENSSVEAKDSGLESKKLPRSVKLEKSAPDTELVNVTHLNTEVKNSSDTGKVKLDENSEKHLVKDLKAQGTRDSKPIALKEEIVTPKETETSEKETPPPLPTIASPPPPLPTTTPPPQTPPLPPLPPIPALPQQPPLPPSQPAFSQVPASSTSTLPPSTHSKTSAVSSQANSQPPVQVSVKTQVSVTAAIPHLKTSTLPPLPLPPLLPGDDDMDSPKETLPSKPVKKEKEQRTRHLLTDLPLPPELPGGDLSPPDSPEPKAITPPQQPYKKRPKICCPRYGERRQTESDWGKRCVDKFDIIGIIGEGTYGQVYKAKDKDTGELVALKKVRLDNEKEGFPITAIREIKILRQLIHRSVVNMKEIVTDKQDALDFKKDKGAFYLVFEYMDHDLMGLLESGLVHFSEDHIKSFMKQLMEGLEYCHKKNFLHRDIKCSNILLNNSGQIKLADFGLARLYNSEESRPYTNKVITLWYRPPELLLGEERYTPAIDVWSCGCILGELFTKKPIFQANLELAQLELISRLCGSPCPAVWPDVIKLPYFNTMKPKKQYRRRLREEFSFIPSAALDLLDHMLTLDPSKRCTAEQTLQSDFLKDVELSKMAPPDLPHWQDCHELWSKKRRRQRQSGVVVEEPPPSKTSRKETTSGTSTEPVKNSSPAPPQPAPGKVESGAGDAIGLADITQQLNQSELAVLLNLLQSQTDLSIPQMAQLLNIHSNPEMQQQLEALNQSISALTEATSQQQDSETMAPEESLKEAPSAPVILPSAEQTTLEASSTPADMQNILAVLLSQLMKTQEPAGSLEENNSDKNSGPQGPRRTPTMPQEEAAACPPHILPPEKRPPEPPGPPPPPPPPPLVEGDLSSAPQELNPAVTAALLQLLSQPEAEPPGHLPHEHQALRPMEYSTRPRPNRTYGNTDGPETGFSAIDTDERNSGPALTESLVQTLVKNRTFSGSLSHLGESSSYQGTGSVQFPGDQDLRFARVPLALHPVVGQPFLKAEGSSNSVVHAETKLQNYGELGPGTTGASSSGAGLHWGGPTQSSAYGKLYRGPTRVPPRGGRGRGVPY
Sequence (O75909 whole entry partner): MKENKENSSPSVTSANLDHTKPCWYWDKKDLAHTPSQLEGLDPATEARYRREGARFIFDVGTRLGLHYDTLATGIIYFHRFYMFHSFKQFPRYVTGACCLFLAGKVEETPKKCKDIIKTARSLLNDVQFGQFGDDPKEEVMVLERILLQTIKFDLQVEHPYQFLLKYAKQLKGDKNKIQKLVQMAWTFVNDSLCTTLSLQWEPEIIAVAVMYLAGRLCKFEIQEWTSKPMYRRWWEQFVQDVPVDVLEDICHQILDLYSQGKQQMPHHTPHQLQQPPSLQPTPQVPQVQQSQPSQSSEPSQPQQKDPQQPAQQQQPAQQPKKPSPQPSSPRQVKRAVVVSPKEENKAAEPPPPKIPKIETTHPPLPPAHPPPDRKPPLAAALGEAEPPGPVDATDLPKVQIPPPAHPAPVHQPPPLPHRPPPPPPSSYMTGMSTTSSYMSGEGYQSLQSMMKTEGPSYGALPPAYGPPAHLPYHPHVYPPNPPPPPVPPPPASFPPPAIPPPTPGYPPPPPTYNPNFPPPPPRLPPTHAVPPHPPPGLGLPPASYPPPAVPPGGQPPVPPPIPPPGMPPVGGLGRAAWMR
Experimental Endpoint: (IC50 CDK12 high ATP) to (Degradation DC50 CDK12) ratio

1. CC(CCN(C)C)n1nc(NCc2nc3ccccc3[nH]2)c2ncc(C3CC3)nc21 (single isomer, unassigned) [Example 63]; >22
2. OC1(Cn2nc(NCc3nc4ccccc4[nH]3)c3ncc(C4CC4)nc32)CCC1; >536
3. Cc1ccc2[nH]c(CNc3nn(C4CCN(C)CC4)c4nc(C5CC5)cnc34)nc2c1; >1526
4. OC1(Cn2nc(NCc3nc4ccccc4[nH]3)c3ncc(C4CC4)nc32)CCCC1; >90
